Listed next: entries and their corresponding Activity at 133 nM Antibody Concentration (% Survival Inhibition), Average.
molecular target: KDR (human, UniProt P35968 20-1356); test: cell-based or functional assay
Sequence (P35968 20-1356): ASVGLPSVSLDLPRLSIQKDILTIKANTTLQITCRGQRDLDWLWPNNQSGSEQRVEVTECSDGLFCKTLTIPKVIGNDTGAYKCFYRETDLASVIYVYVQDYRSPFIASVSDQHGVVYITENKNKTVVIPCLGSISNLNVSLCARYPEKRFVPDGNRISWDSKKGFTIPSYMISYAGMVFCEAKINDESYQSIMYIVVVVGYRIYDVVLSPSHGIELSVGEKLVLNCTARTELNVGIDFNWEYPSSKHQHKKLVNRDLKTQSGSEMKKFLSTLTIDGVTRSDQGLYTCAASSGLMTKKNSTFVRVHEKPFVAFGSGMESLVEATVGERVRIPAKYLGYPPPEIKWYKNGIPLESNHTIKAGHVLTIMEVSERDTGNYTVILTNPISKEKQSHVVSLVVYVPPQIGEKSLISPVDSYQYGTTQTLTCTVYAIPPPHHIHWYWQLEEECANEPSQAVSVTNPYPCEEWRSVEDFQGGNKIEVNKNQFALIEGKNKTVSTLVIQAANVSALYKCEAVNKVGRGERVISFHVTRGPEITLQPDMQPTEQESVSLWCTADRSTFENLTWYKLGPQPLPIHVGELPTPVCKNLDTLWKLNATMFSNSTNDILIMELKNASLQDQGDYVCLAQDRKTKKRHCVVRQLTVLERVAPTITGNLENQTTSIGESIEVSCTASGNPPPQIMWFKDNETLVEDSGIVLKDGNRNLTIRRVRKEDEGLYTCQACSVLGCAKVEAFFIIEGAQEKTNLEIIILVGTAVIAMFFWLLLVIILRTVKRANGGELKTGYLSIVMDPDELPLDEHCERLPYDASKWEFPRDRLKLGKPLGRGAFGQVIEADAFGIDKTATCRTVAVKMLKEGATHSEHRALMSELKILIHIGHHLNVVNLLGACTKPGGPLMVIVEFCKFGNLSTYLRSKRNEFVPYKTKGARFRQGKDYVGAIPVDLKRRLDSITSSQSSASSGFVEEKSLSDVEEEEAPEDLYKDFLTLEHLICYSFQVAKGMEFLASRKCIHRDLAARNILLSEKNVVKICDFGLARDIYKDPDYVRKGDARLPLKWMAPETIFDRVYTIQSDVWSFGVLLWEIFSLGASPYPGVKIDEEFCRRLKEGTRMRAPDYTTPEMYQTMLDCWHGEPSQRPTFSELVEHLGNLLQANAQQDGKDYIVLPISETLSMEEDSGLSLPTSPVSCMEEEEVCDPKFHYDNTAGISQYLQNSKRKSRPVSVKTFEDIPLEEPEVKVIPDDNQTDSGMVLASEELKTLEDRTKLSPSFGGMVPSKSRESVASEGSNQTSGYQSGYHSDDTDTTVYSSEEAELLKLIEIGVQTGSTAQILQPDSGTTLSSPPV
READOUT_NAME: Activity at 133 nM Antibody Concentration (% Survival Inhibition), Average (%)

{"columns": ["BINDER", "UNIT_ABBREV", "NUMBER"],
 "data": [
  ["30D7 (antibody, V domains shown) VH: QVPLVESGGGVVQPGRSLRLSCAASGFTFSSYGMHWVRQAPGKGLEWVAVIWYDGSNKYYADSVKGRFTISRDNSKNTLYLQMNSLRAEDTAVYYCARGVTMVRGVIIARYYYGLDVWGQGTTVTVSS VL: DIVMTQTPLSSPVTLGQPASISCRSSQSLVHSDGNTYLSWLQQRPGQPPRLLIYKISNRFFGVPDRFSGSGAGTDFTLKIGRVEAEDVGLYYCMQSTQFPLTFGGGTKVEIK", "%", -51],
  ["32F4 (antibody, V domains shown) VH: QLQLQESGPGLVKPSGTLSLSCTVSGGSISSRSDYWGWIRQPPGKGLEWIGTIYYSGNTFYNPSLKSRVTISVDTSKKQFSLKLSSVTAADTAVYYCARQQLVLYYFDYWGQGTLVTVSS VL: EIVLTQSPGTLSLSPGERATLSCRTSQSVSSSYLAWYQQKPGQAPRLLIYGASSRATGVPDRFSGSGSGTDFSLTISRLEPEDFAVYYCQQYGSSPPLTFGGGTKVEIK", "%", 73],
  ["33C3 (antibody, V domains shown) VH: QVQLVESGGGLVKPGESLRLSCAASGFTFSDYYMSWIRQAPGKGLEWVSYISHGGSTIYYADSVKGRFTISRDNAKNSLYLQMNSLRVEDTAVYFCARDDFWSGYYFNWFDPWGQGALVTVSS VL: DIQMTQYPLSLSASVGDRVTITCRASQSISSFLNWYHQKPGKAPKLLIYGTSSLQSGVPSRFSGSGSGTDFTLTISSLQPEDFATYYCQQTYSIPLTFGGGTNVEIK", "%", 103]
]}
